- Test system: MDA-MB-468
- protocol: NCI60 five-dose screen
- Format: cell-based
- runParameters: Homo sapiens; MDA-MB-468, breast cancer; read-out: LC50 (the source's name)
Hi! Could you tag entries with CC50 below 30 µM as fulfilled, and those at or above as not fulfilled? Much appreciated.

querySmiles: Cn1cccc1/C=N/NC(=O)c1[nH]c2ccc(Br)cc2c1-c1ccccc1
assignedCategory: not fulfilled
//
querySmiles: O=C(N/N=C/c1cc[nH]c1)c1[nH]c2ccc(Br)cc2c1-c1ccccc1
assignedCategory: fulfilled
//
querySmiles: Cc1[nH]c(/C=N/NC(=O)c2[nH]c3ccc(Br)cc3c2-c2ccccc2)c(C)c1[N+](=O)[O-]
assignedCategory: fulfilled
//
querySmiles: CCOC(=O)c1cc(/C=N/NC(=O)c2[nH]c3ccc(Br)cc3c2-c2ccccc2)c[nH]1
assignedCategory: not fulfilled
//
querySmiles: O=C(N/N=C/c1cc(Cl)c[nH]1)c1[nH]c2ccc(Br)cc2c1-c1ccccc1
assignedCategory: fulfilled
//
querySmiles: O=C(N/N=C/c1cc([N+](=O)[O-])c[nH]1)c1[nH]c2ccc(Br)cc2c1-c1ccccc1
assignedCategory: not fulfilled
//
querySmiles: CCOC(=O)c1c[nH]c(/C=N/NC(=O)c2[nH]c3ccc(Br)cc3c2-c2ccccc2)c1
assignedCategory: fulfilled
//
querySmiles: O=C(N/N=C/c1ccc([N+](=O)[O-])[nH]1)c1[nH]c2ccc(Br)cc2c1-c1ccccc1
assignedCategory: not fulfilled
